# Experimental system: KRAS(G12V)/SOS1 (Homo sapiens, UniProt P01116, G12V)
# Sequence (P01116 1-188 isoform P01116-2 G12V): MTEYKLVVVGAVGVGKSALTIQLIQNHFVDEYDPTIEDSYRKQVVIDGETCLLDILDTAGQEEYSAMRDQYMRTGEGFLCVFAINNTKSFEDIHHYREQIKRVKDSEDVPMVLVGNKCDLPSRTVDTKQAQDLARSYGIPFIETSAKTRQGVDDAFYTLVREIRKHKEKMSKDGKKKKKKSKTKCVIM
# Assay procedure: KRAS(G12V)/SOS1 homogeneous time-resolved fluorescence (HTRF) assay
# Condition description: absence of GTP; 4° C., 3 hours; read-out: HTRF of KRASG12V-SOS1
pIC50: −log10 of the molar value.

Molecule | Experimental system | pIC50
C#Cc1c(F)ccc2cc(O)cc(-c3ncc4c(N5CC6CCC(C5)N6C(=O)NC(=O)C(C)(C)C)nc(OCC5(CN6CCC(F)CC6)CC5)nc4c3F)c12 | KRAS(G12V)/SOS1 (Homo sapiens, UniProt P01116, G12V) | 6.00 to 7.00
C#Cc1c(F)ccc2cc(O)cc(-c3nc(OC)c4c(N5CC6CCC(C5)N6C(=O)NC5CCCC5)nc(OCC5(CN6CCC(F)CC6)CC5)nc4c3F)c12 | KRAS(G12V)/SOS1 (Homo sapiens, UniProt P01116, G12V) | > 7.00
C#Cc1c(F)ccc2cc(O)cc(-c3nc(OC)c4c(N5CC6CCC(C5)N6C(=O)C5CC5)nc(OCC5(CN6CCC(F)CC6)CC5)nc4c3F)c12 | KRAS(G12V)/SOS1 (Homo sapiens, UniProt P01116, G12V) | > 7.00
C#Cc1c(F)ccc2cc(O)cc(-c3ncc4c(N5CC6CCC(C5)N6C(=O)CC#N)nc(OCC5(CN6CCC(F)CC6)CC5)nc4c3F)c12 | KRAS(G12V)/SOS1 (Homo sapiens, UniProt P01116, G12V) | > 7.00
C#Cc1c(F)ccc2cc(O)cc(-c3ncc4c(N5CC6CCC(C5)N6C(=O)NC(C)C(F)(F)F)nc(OCC5(CN6CCC(F)CC6)CC5)nc4c3F)c12 (stereo not drawn) | KRAS(G12V)/SOS1 (Homo sapiens, UniProt P01116, G12V) | 6.00 to 7.00
C#Cc1c(F)ccc2cc(O)cc(-c3ncc4c(N5CC6CCC(C5)N6C(=O)[C@H]5CCN(C(=O)OC)C5)nc(OCC5(CN6CCC(F)CC6)CC5)nc4c3F)c12 | KRAS(G12V)/SOS1 (Homo sapiens, UniProt P01116, G12V) | 6.00 to 7.00
C#Cc1c(F)ccc2cc(O)cc(-c3ncc4c(N5CC6CCC(C5)N6C(=O)NC5(C#N)CC5)nc(OCC5(CN6CCC(F)CC6)CC5)nc4c3F)c12 | KRAS(G12V)/SOS1 (Homo sapiens, UniProt P01116, G12V) | 6.00 to 7.00
C#Cc1c(F)ccc2cc(O)cc(-c3ncc4c(N5CC6CCC(C5)N6C(=O)NC5CCCC5)nc(OCC5(CN6CCC(F)CC6)CC5)nc4c3F)c12 | KRAS(G12V)/SOS1 (Homo sapiens, UniProt P01116, G12V) | > 7.00
C#Cc1c(F)ccc2cc(O)cc(-c3ncc4c(N5CC6CCC(C5)N6C(=O)c5nnn[nH]5)nc(OCC5(CN6CCC(F)CC6)CC5)nc4c3F)c12 | KRAS(G12V)/SOS1 (Homo sapiens, UniProt P01116, G12V) | 6.00 to 7.00
C#Cc1c(F)ccc2cc(O)cc(-c3ncc4c(N5CC6CCC(C5)N6)nc(OCC5(CN6CCC(F)CC6)CC5)nc4c3F)c12 | KRAS(G12V)/SOS1 (Homo sapiens, UniProt P01116, G12V) | 6.00 to 7.00
C#Cc1c(F)ccc2cc(O)cc(-c3nc(OC)c4c(N5CC6CCC(C5)N6C(=O)NC5(C#N)CC5)nc(OCC5(CN6CCC(F)CC6)CC5)nc4c3F)c12 | KRAS(G12V)/SOS1 (Homo sapiens, UniProt P01116, G12V) | 6.00 to 7.00
C#Cc1c(F)ccc2cc(O)cc(-c3ncc4c(N5CC6CCC(C5)N6C(=O)CC(F)(F)F)nc(OCC5(CN6CCC(F)CC6)CC5)nc4c3F)c12 | KRAS(G12V)/SOS1 (Homo sapiens, UniProt P01116, G12V) | 6.00 to 7.00

* * *

compounds and their reported IC50
# Experimental system: KRAS(G12V)/SOS1 (Homo sapiens, UniProt P01116, G12V)
# Assay procedure: KRAS(G12V)/SOS1 homogeneous time-resolved fluorescence (HTRF) assay
# Condition description: absence of GTP; 4° C., 3 hours; read-out: HTRF of KRASG12V-SOS1

Smiles data | IC50
C#CCCC(=O)N1C2CCC1CN(c1nc(OCC3(CN4CCC(F)CC4)CC3)nc3c(F)c(-c4cc(O)cc5ccc(F)c(C#C)c45)nc(OC)c13)C2 | < 100 nM
C#Cc1c(F)ccc2cc(O)cc(-c3nc(OC)c4c(N5CC6CCC(C5)N6C(=O)NC5CC5)nc(OCC5(CN6CCC(F)CC6)CC5)nc4c3F)c12 | < 100 nM
C#Cc1c(F)ccc2cc(O)cc(-c3nc(OC)c4c(N5CC6CCC(C5)N6C(=O)CC(F)(F)F)nc(OCC5(CN6CCC(F)CC6)CC5)nc4c3F)c12 | < 100 nM

* * *

# Experimental system: KRAS(G12V)/SOS1 (Homo sapiens, UniProt P01116, G12V)
# Assay procedure: KRAS(G12V)/SOS1 homogeneous time-resolved fluorescence (HTRF) assay
# Condition description: absence of GTP; 4° C., 3 hours; read-out: HTRF of KRASG12V-SOS1
Outcome measure: IC50

Compound | Test value
C#Cc1c(F)ccc2cc(O)cc(-c3ncc4c(N5CC6CCC(C5)N6C(=O)OC(C)(C)C)nc(OCC5(CN6CCC(F)CC6)CC5)nc4c3F)c12 | 100 to 1000 nM
C#Cc1c(F)ccc2cc(O)cc(-c3ncc4c(N5CC6CCC(C5)N6C(=O)NC#N)nc(OCC5(CN6CCC(F)CC6)CC5)nc4c3F)c12 | 100 to 1000 nM
C#Cc1c(F)ccc2cc(O)cc(-c3ncc4c(N5CC6CCC(C5)N6C(=O)CC(C)(C)C)nc(OCC5(CN6CCC(F)CC6)CC5)nc4c3F)c12 | 100 to 1000 nM
C#Cc1c(F)ccc2cc(O)cc(-c3ncc4c(N5CC6CCC(C5)N6C(=O)N5CCC5)nc(OCC5(CN6CCC(F)CC6)CC5)nc4c3F)c12 | 100 to 1000 nM
C#Cc1c(F)ccc2cc(O)cc(-c3ncc4c(N5CC6CCC(C5)N6C(=O)OCC)nc(OCC5(CN6CCC(F)CC6)CC5)nc4c3F)c12 | 100 to 1000 nM
C#Cc1c(F)ccc2cc(O)cc(-c3nc(OC)c4c(N5CC6CCC(C5)N6C(=O)NCC#N)nc(OCC5(CN6CCC(F)CC6)CC5)nc4c3F)c12 | 100 to 1000 nM
C#Cc1c(F)ccc2cc(O)cc(-c3nc(OC)c4c(N5CC6CCC(C5)N6C(=O)C5CC5(F)F)nc(OCC5(CN6CCC(F)CC6)CC5)nc4c3F)c12 (centres unmarked) | < 100 nM
[2H]C([2H])([2H])Oc1nc(-c2cc(O)cc3ccc(F)c(C#C)c23)c(F)c2nc(OCC3(CN4CC5CC5C4)CC3)nc(N3CC4CCC(C3)N4C(=O)C(C)C#N)c12 (centres unmarked) | < 100 nM
C#CCCC(=O)N1C2CCC1CN(c1nc(OCC3(CN4CCC(F)CC4)CC3)nc3c(F)c(-c4cc(O)cc5ccc(F)c(C#C)c45)ncc13)C2 | < 100 nM
C#Cc1c(F)ccc2cc(O)cc(-c3ncc4c(N5CC6CCC(C5)N6C(=O)CC5CC5)nc(OCC5(CN6CCC(F)CC6)CC5)nc4c3F)c12 | 100 to 1000 nM
[2H]C([2H])([2H])Oc1nc(-c2cc(O)cc3ccc(F)c(C#C)c23)c(F)c2nc(OCC3(CN4CC5CC5C4)CC3)nc(N3CC4CCC(C3)N4C(=O)C(C)(C)C#N)c12 (centres unmarked) | < 100 nM
C#Cc1c(F)ccc2cc(O)cc(-c3ncc4c(N5CC6CCC(C5)N6S(=O)(=O)CC#N)nc(OCC5(CN6CCC(F)CC6)CC5)nc4c3F)c12 | 100 to 1000 nM
C#Cc1c(F)ccc2cc(O)cc(-c3ncc4c(N5CC6CCC(C5)N6C(=O)C(C)(C)C)nc(OCC5(CN6CCC(F)CC6)CC5)nc4c3F)c12 | 100 to 1000 nM
C#Cc1c(F)ccc2cc(O)cc(-c3nc(OC)c4c(N5CC6CCC(C5)N6C(=O)NCC(F)(F)F)nc(OCC5(CN6CCC(F)CC6)CC5)nc4c3F)c12 | < 100 nM
C#CCC(=O)N1C2CCC1CN(c1nc(OCC3(CN4CCC(F)CC4)CC3)nc3c(F)c(-c4cc(O)cc5ccc(F)c(C#C)c45)ncc13)C2 | < 100 nM
C#Cc1c(F)ccc2cc(O)cc(-c3ncc4c(N5CC6CCC(C5)N6S(=O)(=O)NCCN(C)C)nc(OCC5(CN6CCC(F)CC6)CC5)nc4c3F)c12 | < 100 nM
C#Cc1c(F)ccc2cc(O)cc(-c3nc(OC)c4c(N5CC6CCC(C5)N6C(=O)NC(C)C#N)nc(OCC5(CN6CCC(F)CC6)CC5)nc4c3F)c12 (centres unmarked) | < 100 nM
C#Cc1c(F)ccc2cc(O)cc(-c3ncc4c(N5CC6CCC(C5)N6C(=O)OCC(C)C)nc(OCC5(CN6CCC(F)CC6)CC5)nc4c3F)c12 | 100 to 1000 nM
C#Cc1c(F)ccc2cc(O)cc(-c3nc(OC)c4c(N5CC6CCC(C5)N6C(=O)C5(C(F)(F)F)CC5)nc(OCC5(CN6CCC(F)CC6)CC5)nc4c3F)c12 | < 100 nM
C#Cc1c(F)ccc2cc(O)cc(-c3ncc4c(N5CC6CCC(C5)N6C(=O)CC(C)C)nc(OCC5(CN6CCC(F)CC6)CC5)nc4c3F)c12 | 100 to 1000 nM
C#Cc1c(F)ccc2cc(O)cc(-c3ncc4c(N5CC6CCC(C5)N6CC)nc(OCC5(CN6CCC(F)CC6)CC5)nc4c3F)c12 | 100 to 1000 nM
C#Cc1c(F)ccc2cc(O)cc(-c3ncc4c(N5CC6CCC(C5)N6C(=O)NC5(C(F)(F)F)CC5)nc(OCC5(CN6CCC(F)CC6)CC5)nc4c3F)c12 | < 100 nM
C#Cc1c(F)ccc2cc(O)cc(-c3ncc4c(N5CC6CCC(C5)N6C(=O)NCC(C)(C)O)nc(OCC5(CN6CCC(F)CC6)CC5)nc4c3F)c12 | < 100 nM
